B1: SCNN1D (parent)
chain: RRPSPVLRHLELLDEFARENIDSL

Variants of: B1
Test: protein stability index of a GFP-peptide fusion (GPS, HEK-293T) (PSI 1-6); higher = more stable;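 further: lentivirally expressed fusions sorted by FACS into six bins by GFP to DsRed ratio, PSI derived from sequencing read proportions per bin multiplied by bin number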
Conditions: c terminus: a fixed tail appended
Recorded protein stability index, one value per entry.
Enter a number only.

Q) Retrieve protein stability index measured for RKPSPVLRHLELLDEFARENIDSL [R2K] and print it.
A) 2.85

---
Q) Report measured protein stability index; entry is RRPSPVERHLELLDEFARENIDSL [L7E]
A) 3.53

Q) Return protein stability index for the following variant: RRPSPVLRHLELLDFFARENIDSL [E15F]
A) 2.03

Q) // fetch protein stability index given entry RRPSPVLRHLELLDEFARENQDSL [I21Q]
A) 3.59

Q) In one line, give reported protein stability index of the entry RRPSPVLRHLELLDCFARENIDSL [E15C] .
A) 2.94

Q) Consider the variant RRPSPSLRHLELLDEFARENIDSL [V6S] . State its measured protein stability index.
A) 3.48

Q) Kindly indicate its recorded protein stability index. Item: RRPSPVWRHLELLDEFARENIDSL [L7W]
A) 2.18

Q) Tell me measured protein stability index for RRPSPVGRHLELLDEFARENIDSL [L7G] please.
A) 4.17

Q) Tell me its protein stability index given RRPEPVLRHLELLDEFARENIDSL [S4E] as the entry.
A) 3.61

Q) // Input: RRPSPVLRHLELLDEWARENIDSL [F16W] . Output its protein stability index only.
A) 2.64

Q) State its protein stability index: RRPSPVLAHLELLDEFARENIDSL [R8A]
A) 3.33

Q) Fill in reported protein stability index for this entry: RRPSPVLRHLELLDEFARMNIDSL [E19M]
A) 2.88

Q) Quick one: give measured protein stability index for RRPSPVLRHLELLDEFAREDIDSL [N20D]
A) 3.65

Q) Please list protein stability index recorded for the variant RWPSPVLRHLELLDEFARENIDSL [R2W]
A) 1.78

Q) Fill in reported protein stability index for this entry: RRPSPVLRHLELLDEFARENIDRL [S23R]
A) 3.44

Q) Report protein stability index, nothing else, for this variant: RRPSPVLRNLELLDEFARENIDSL [H9N]
A) 4.09

Q) Identify measured protein stability index corresponding to GRPSPVLRHLELLDEFARENIDSL [R1G]
A) 2.46

Q) Output measured protein stability index for this item: RRPSPVLRHLEMLDEFARENIDSL [L12M]
A) 3.98

Q) // fetch protein stability index given entry RRPSPVLRHLELVDEFARENIDSL [L13V]
A) 3.6
